Quick reference for IC50 among some molecules
# TESTED_SYSTEM: HLA-B4001 (Homo sapiens, UniProt P01889, A65T/A93T/A95T/D138N/D98Y/E176V/E69K/N87E/Q56L/Q94N/R180L/S121R/S35A/S48T/T167S/V36M/W171L/Y33H/Y91S)
# TEST: Competitive peptide binding assay, CIR-B4001
# RECORDED_CONDITIONS: HMy2.CIR-B4001 cells, reference Cy5-[…], class from inhibition at 5 and 15 μM, flow cytometry MFI; read-out: Binding affinity with HLA-B4001
Peptide text beside a SMILES is read from it.
READOUT_TYPE: IC50

{"MOLECULE": "CC(C)[C@H](NC(=O)[C@H](CC(N)=O)NC(=O)[C@H](Cc1ccc(O)cc1)NC(=O)[C@H](C)NC(=O)[C@@H](N)CCCCN)C(=O)N[C@H](C(=O)N[C@@H](CCC(N)=O)C(=O)N[C@@H](C)C(=O)N[C@@H](Cc1ccccc1)C(=O)O)[C@@H](C)O [Epitope Y62] (H-KAYNVTQAF-OH)", "READOUT_TYPE": "IC50", "OBSERVED_VALUE": "> 15 µM"}
{"MOLECULE": "CC[C@H](C)[C@H](NC(=O)[C@@H](NC(=O)[C@H](CC(C)C)NC(=O)[C@H](CCC(=O)O)NC(=O)[C@H](CO)NC(=O)[C@H](CCC(=O)O)NC(=O)[C@@H](N)CC(C)C)C(C)C)C(=O)NCC(=O)N[C@@H](C)C(=O)N[C@H](C(=O)O)C(C)C [Epitope Y211] (H-LESELVIGAV-OH; N-terminus and C-terminus assumed)", "READOUT_TYPE": "IC50", "OBSERVED_VALUE": "5 to 15 µM"}

---

# TESTED_SYSTEM: UniProt:P10321
Peptide text beside a SMILES is read from it.

{"MOLECULE": "C[C@H](NC(=O)[C@H](CO)NC(=O)[C@H](C)NC(=O)[C@H](CO)NC(=O)[C@@H]1CCCN1C(=O)[C@H](C)NC(=O)[C@@H](N)Cc1ccccc1)C(=O)N[C@@H](Cc1ccccc1)C(=O)N[C@@H](Cc1ccccc1)C(=O)O [Epitope M16] (H-FAPSASAFF-OH; N-terminus and C-terminus assumed)", "TESTED_SYSTEM": "UniProt:P10321", "IC50": "> 15 µM"}
{"MOLECULE": "CSCC[C@H](NC(=O)[C@H](CO)NC(=O)[C@H](CCC(N)=O)NC(=O)[C@H](CCC(N)=O)NC(=O)[C@H](CC(C)C)NC(=O)[C@H](CCC(N)=O)NC(=O)[C@H](CCCCN)NC(=O)[C@H](CO)NC(=O)[C@@H](N)Cc1ccccc1)C(=O)O [Epitope M14] (H-FSKQLQQSM-OH; N-terminus and C-terminus assumed)", "TESTED_SYSTEM": "UniProt:P10321", "IC50": "5 to 15 µM"}
{"MOLECULE": "C[C@@H](O)[C@H](NC(=O)[C@H](CCC(N)=O)NC(=O)[C@H](CC(=O)O)NC(=O)[C@H](Cc1c[nH]c2ccccc12)NC(=O)[C@H](Cc1ccc(O)cc1)NC(=O)[C@H](CCCCN)NC(=O)[C@H](Cc1ccccc1)NC(=O)[C@@H](N)Cc1ccc(O)cc1)C(=O)N[C@@H](Cc1ccc(O)cc1)C(=O)O [Epitope M122] (H-YFKYWDQTY-OH; N-terminus and C-terminus assumed)", "TESTED_SYSTEM": "UniProt:P10321", "IC50": "5 to 15 µM"}
{"MOLECULE": "CC[C@H](C)[C@H](NC(=O)[C@H](CCCNC(=N)N)NC(=O)[C@H](CC(C)C)NC(=O)[C@H](CCSC)NC(=O)[C@H](CC(N)=O)NC(=O)[C@@H]1CCCN1C(=O)[C@H](CCSC)NC(=O)[C@H](C)NC(=O)[C@@H](N)CCCNC(=N)N)C(=O)O [Epitope M30] (H-RAMPNMLRI-OH; N-terminus and C-terminus assumed)", "TESTED_SYSTEM": "UniProt:P10321", "IC50": "> 15 µM"}
{"MOLECULE": "CSCC[C@H](NC(=O)[C@H](C)NC(=O)[C@@H](N)Cc1ccccc1)C(=O)N[C@@H](CCC(N)=O)C(=O)N[C@@H](CCSC)C(=O)N[C@@H](C)C(=O)N[C@@H](Cc1ccc(O)cc1)C(=O)N[C@@H](CCCNC(=N)N)C(=O)N[C@@H](Cc1ccccc1)C(=O)O [Epitope M63]", "TESTED_SYSTEM": "UniProt:P10321", "IC50": "> 15 µM"}
{"MOLECULE": "CC(C)C[C@H](NC(=O)[C@@H](NC(=O)[C@@H](NC(=O)CNC(=O)[C@H](CCC(N)=O)NC(=O)[C@@H]1CCCN1C(=O)[C@H](CC(C)C)NC(=O)[C@H](CCC(N)=O)NC(=O)[C@@H](N)CC(C)C)[C@@H](C)O)[C@@H](C)O)C(=O)O [Epitope M13] (H-LQLPQGTTL-OH; N-terminus and C-terminus assumed)", "TESTED_SYSTEM": "UniProt:P10321", "IC50": "5 to 15 µM"}
